B1: UPF0688 protein C1orf174 (Homo sapiens), Q8IYL3 (parent)
chain: MRSRKLTGAVRSSARLKARSCSAARLASAQEVAGSTSAKTACLTSSSHKATDTRTSKKFKCDKGHLVKSELQKLVPKNDSASLPKVTPETPCENEFAEGSALLPGSEAGVSVQQGAASLPLGGCRVVSDSRLAKTRDGLSVPKHSAGSGAEESNSSSTVQKQNEPGLQTEDVQKPPLQMDNSVFLDDDSNQPMPVSRFFGNVELMQDLPPASSSCPSMSRREFRKMHFRAKDDDDDDDDDAEM

variants of: B1; details: with ikzf1_human IKZF1, Q13422
Sequence (Q13422 whole entry): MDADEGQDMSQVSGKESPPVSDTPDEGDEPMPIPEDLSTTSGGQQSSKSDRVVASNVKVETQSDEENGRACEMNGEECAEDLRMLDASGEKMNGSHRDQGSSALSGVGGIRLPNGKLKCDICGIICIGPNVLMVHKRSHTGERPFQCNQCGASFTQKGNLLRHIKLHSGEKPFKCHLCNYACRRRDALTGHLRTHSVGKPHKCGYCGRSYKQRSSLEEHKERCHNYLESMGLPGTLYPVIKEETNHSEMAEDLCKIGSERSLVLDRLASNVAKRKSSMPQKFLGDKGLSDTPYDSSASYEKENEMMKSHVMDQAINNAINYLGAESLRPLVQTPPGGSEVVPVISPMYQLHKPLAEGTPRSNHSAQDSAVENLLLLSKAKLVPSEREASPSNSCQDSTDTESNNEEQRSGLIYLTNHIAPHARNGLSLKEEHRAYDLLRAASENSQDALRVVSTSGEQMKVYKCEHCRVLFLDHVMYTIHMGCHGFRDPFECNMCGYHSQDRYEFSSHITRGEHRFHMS
RECORDED ENDPOINT: effect of a mutation on the interaction

V195M: with no effect
R131C: with no effect
S82A: with no effect
A81T: with no effect
